Give pIC50 for every item shown.
# SUBJECT_OF_TEST: BRD4 (BD1+BD2) bromodomain (Homo sapiens (Human))
# TEST_METHOD_NOTES: BRD4 binding inhibition (AlphaScreen, GST-BRD4 vs tetraacetylated histone H4 peptide)
# ASSAY_SETUP: GST-BRD4 (BD1+BD2) vs biotinylated acetyl-histone H4 peptide, AlphaScreen; read-out: BRD4 IC50
Numbers only, as −log10 of the molar value.

COMPOUND	NUMERIC_VALUE
CCC(F)(F)C(=O)NCCCCNc1nc2cc(OC)ccc2n2c(C)nnc12	7.82
COc1ccc(C(=O)c2ccc3c(c2)nc(NCCCCNC(=O)OC(C)(C)C)c2nnc(C)n23)cc1	7.14
Cc1nnc2c(NCCCCNC(=O)[C@@H](NC(=O)C(C)(C)C)C(C)C)nc3cc(N4C[C@@H](C)O[C@@H](C)C4)ccc3n12	7.31
COc1cc2nc(NCCCCNC(=O)OC3CCCC3)c3nnc(C)n3c2cc1OC	7.89
Cc1nnc2c(NCCCCNC(=O)CC(C)C)nc3cc(OC4CCOCC4)ccc3n12	8.00

Could you tell me pIC50 for each of these compounds? They are listed below.
1. CCC(C)C(=O)NCCCCNc1nc2cc(OCCOC)ccc2n2c(C)nnc12 (stereo not drawn)
2. C=CCOC(=O)NCCCCNc1nc2cc(OCCOC)ccc2n2c(C)nnc12
3. COCCOc1ccc2c(c1)nc(NCCCCNC(=O)[C@@H](NC(=O)C(C)(C)C)C(C)C)c1nnc(C)n12
4. Cc1nnc2c(NCCCCNC(=O)[C@@H](NC(=O)OC(C)(C)C)C(C)C)nc3cc(N4CCOCC4)ccc3n12
5. Cc1nnc2c(NCCCCNC(=O)OCC(C)C)nc3cc(-n4ccnc4)ccc3n12
6. Cc1nnc2c(NCCCCNC(=O)Cc3cccs3)nc3cc4c(cc3n12)OCCO4
7. CCOc1ccc2c(c1)nc(NCCCCNC(=O)OCC(C)C)c1nnc(C)n12

Result string:
7.89
7.85
7.74
7.52
8.30
7.72
8.00

For every listed record, write down its pIC50.
1. COC(=O)c1ccc2c(c1)nc(NCCCCNC(=O)CC(C)C)c1nnc(C)n12
2. Cc1nnc2c(NCCCCNC(=O)OC(C)C)nc3cc(OCCN4CCOCC4)ccc3n12
3. Cc1nnc2c(NCCCCNC(=O)c3ccccc3)nc3cc4c(cc3n12)OCCO4
4. COc1ccc2c(c1)nc(NCCCCNC(=O)c1ccccc1F)c1nnc(C)n12
5. Cc1noc(C)c1-c1ccc2nc(NCCCCNC(=O)[C@@H](O)C(C)C)c3nnc(C)n3c2c1
6. Cc1ccc(C(=O)NCCCCNc2nc3ccccc3n3c(C)nnc23)c(Cl)n1

Result string:
7.24
7.74
7.66
7.37
8.00
7.24

Below are some compounds; for each one, tell me its pIC50.
1. COc1cc2nc(NCCCCNC(=O)c3ccccc3Cl)c3nnc(C)n3c2cc1C
2. Cc1cc2nc(NCCCCNC(=O)OC(C)(C)C)c3nnc(C)n3c2cc1C
3. COc1cc2nc(NCCCCNC(=O)CC(C)C)c3nnc(C)n3c2cc1NC(=O)CC(C)C
4. Cc1nnc2c(NCCCCNC(=O)NC3CCCCC3)nc3cc(-c4nc5ccccc5n4C)ccc3n12
5. COCCOc1cc2nc(NCCCCNC(=O)CC(C)(C)C)c3nnc(C)n3c2cc1OCCOC
6. Cc1nnc2c(NCCCCN)nc3cc(-c4nc5ccccc5n4C)ccc3n12

Result string:
1: 7.20; 2: 7.09; 3: 7.49; 4: 7.74; 5: 7.40; 6: 7.21

Okay, here is my list. What is pIC50 for each of these?
1. CCNC(=O)NCCCCNc1nc2cc(OC)c(OC)cc2n2c(C)nnc12
2. COc1cc2nc(NCCCCC(=O)NCc3ccc[nH]3)c3nnc(C)n3c2cc1OC
3. COc1ccc2c(c1)nc(NCCCCNC(=O)SC(C)C)c1nnc(C)n12

Result string:
1: 7.33; 2: 7.57; 3: 7.48

Working through the 3 compounds below one at a time, give pIC50 for each.
1. Cc1nnc2c(NCCCCNC(=O)CC(C)C)nc3cc(-n4ccnc4)ccc3n12
2. Cc1nnc2c(NCCCCNC(=O)CC(C)C)nc3ccc([N+](=O)[O-])cc3n12
3. Cc1nnc2c(NCCCCNC(=O)NC(C)(C)C)nc3ccccc3n12

Result string:
1: 7.89; 2: 7.68; 3: 7.09

For each entry beneath this line, provide reported pIC50.
1. COc1ccc2c(c1)nc(NCCCCNC(=O)[C@@H](NC(=O)[C@@H](F)C(C)C)C(C)C)c1nnc(C)n12
2. CCOc1ccc2c(c1)nc(NCCCCNC(=O)OC(C)(C)C)c1nnc(C)n12
3. Cc1nnc2c(NCCCCNC(=O)CC(C)C)nc3cc(OCc4ccc(-c5nnn(C)n5)cc4)ccc3n12

Result string:
1: 7.92; 2: 8.05; 3: 7.26
